# TEST_SUMMARY: decrease of insulin promoter-GFP reporter – imaging, high-content screening, mouse beta cells (AID 1628)
# MEASUREMENT_CONDITIONS: MIN6 insulin promoter GFP reporter, at 5 µM, stronger effect = lower value
About 930 (0.49%) of roughly 190,000 compounds were called active. Some of the results follow. Measured potencies and affinities stand elsewhere.
Returns: string. Value is t if measured z-score is below 3, and f if it is greater than or equal to it.

CCCCSc1ncc(C(=O)OCC)c(N)n1 = t

Read the next record carefully.
Input line: In the record for CCOC(=O)c1cnc(-n2nc(C)cc2C)nc1NCc1ccccc1 , is z-score less than 3?
Output line: t
